Activity remaining values, listed per item
Molecular target: UniProt:Q6WVP7
Sequence (Q6WVP7 2-252 limits assumed): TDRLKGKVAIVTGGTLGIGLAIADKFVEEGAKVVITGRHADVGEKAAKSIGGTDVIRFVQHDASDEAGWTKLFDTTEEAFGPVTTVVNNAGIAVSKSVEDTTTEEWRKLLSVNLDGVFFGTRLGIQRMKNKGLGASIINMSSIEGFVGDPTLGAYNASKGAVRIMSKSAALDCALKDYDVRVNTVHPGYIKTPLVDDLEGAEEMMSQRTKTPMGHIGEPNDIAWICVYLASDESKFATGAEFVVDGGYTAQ
Test: Effect of metal cations, inhibitors and SH-protecting reagents on enzyme activity
Assay type: biochemical, Lactobacillus kefir
Conditions: addition at final concentration 1 mM; 5.5 mM acetophenone, 0.2 mM NADPH, pH 7.0; partially purified enzyme
MEASUREMENT_LABEL: Activity remaining (%)

MOLECULE	MEASUREMENT_LABEL	READOUT_VALUE
[Cl][Mn][Cl]	Activity remaining	114
[Cl-].[Cl-].[Zn+2]	Activity remaining	114
O=S(=O)(F)Cc1ccccc1 [Phenylmethanesulfonyl fluoride]	Activity remaining	94
[Cl-].[Cl-].[Mg+2]	Activity remaining	132

###

Target: phenylethanol dehydrogenase (Lentilactobacillus kefiri)
Assay: NADPH-dependent reduction: substrate spectrum and dependence of reaction rate on acetophenone/NADPH concentration
Details: NADPH-dependent reductions; pH 7.0, 0.2 mM NADPH, partially purified enzyme
Vmax values, listed per item
MEASUREMENT_LABEL: Vmax (%)

COMPOUND	SUBJECT_OF_TEST	MEASUREMENT_LABEL	UNIT_NAME	READOUT_VALUE
CC(=O)c1ccccc1 [Acetophenone]	phenylethanol dehydrogenase (Lentilactobacillus kefiri)	Vmax	%	100
CCCCCC(=O)CC [Ethyl pentyl ketone]	phenylethanol dehydrogenase (Lentilactobacillus kefiri)	Vmax	%	66
CCCCCCC(C)=O [Methyl hexyl ketone]	phenylethanol dehydrogenase (Lentilactobacillus kefiri)	Vmax	%	91
CC(=O)c1ccc2ccccc2c1 [Methyl 2-naphthyl ketone]	phenylethanol dehydrogenase (Lentilactobacillus kefiri)	Vmax	%	11
NC(=O)C1=CN([C@@H]2O[C@H](COP(=O)(O)OP(=O)(O)OC[C@H]3O[C@@H](n4cnc5c(N)ncnc54)[C@H](OP(=O)(O)O)[C@@H]3O)[C@@H](O)[C@H]2O)C=CC1 [NADPH]	phenylethanol dehydrogenase (Lentilactobacillus kefiri)	Vmax	%	100
CC(=O)CCc1ccccc1 [4-Phenyl-2-butanone]	phenylethanol dehydrogenase (Lentilactobacillus kefiri)	Vmax	%	90

###

Target: phenylethanol dehydrogenase (Lentilactobacillus kefiri, UniProt Q6WVP7)
Assay: Effect of metal cations, inhibitors and SH-protecting reagents on enzyme activity
Type: biochemical, Lactobacillus kefir

MOL_SMILES	Effect on enzyme activity (in words)
c1ccc(-c2ccccn2)nc1	virtually no inhibition
c1cnc2c(c1)ccc1cccnc12	virtually no inhibition

###

Molecular target: phenylethanol dehydrogenase (Lentilactobacillus kefiri, UniProt Q6WVP7)
Test: NADPH-dependent reduction: substrate spectrum and dependence of reaction rate on acetophenone/NADPH concentration
Settings: NADPH-dependent reductions; […]

COMPOUND	Vmax
CC(=O)c1ccc(Cl)cc1	93%
CC(C)=O	96%
O=Cc1ccccc1	10%
CC(=O)C(=O)c1ccccc1	70%
CCC(=O)c1ccccc1	43%
CC(=O)c1ccc(Br)cc1	101%
CC(=O)C=C(C)C [Mesityl oxide, 4-methyl-3-pentene-2-one]	12%
